The measured values listed here are drawn from ChEMBL document CHEMBL3797047.

pIC50: −log10 of the molar value.
// pIC50 collected for Death-associated protein kinase 3 (Homo sapiens, UniProt O43293)
observedProperty: pIC50

> print(dat)
                                querysmiles  resultqualifier  recordedresult
1  CC(C)(C)C(=O)Nc1ccc2c(c1)/C(=C1/Nc3ccccc3/C1=N\O)C(=O)N2                =            6.15
2  CCCCC(=O)Nc1ccc2c(c1)/C(=C1/Nc3ccccc3/C1=N\O)C(=O)N2                =            5.74
3  CC(C)=CC(=O)Nc1ccc2c(c1)/C(=C1/Nc3ccccc3/C1=N\O)C(=O)N2                =            6.35
4  CC(C)(C)CC(=O)Nc1ccc2c(c1)/C(=C1/Nc3ccccc3/C1=N\O)C(=O)N2                <            5.00
5  O=C1Nc2ccc(NC(=O)C3CC3)cc2/C1=C1/Nc2ccccc2/C1=N\O                =            6.85
6  CCCC(=O)Nc1ccc2c(c1)/C(=C1/Nc3ccccc3/C1=N\O)C(=O)N2                =            6.29

----------
Target: Epidermal growth factor receptor (Homo sapiens)
Test: Inhibition of EGFR (746 to 750) deletion mutant (unknown origin) using peptide substrate incubated for 30 mins by europium donor dye-based plate reader analysis
Format: protein assay
Sequence (P00533 25-1210 limits assumed, stated change not applied): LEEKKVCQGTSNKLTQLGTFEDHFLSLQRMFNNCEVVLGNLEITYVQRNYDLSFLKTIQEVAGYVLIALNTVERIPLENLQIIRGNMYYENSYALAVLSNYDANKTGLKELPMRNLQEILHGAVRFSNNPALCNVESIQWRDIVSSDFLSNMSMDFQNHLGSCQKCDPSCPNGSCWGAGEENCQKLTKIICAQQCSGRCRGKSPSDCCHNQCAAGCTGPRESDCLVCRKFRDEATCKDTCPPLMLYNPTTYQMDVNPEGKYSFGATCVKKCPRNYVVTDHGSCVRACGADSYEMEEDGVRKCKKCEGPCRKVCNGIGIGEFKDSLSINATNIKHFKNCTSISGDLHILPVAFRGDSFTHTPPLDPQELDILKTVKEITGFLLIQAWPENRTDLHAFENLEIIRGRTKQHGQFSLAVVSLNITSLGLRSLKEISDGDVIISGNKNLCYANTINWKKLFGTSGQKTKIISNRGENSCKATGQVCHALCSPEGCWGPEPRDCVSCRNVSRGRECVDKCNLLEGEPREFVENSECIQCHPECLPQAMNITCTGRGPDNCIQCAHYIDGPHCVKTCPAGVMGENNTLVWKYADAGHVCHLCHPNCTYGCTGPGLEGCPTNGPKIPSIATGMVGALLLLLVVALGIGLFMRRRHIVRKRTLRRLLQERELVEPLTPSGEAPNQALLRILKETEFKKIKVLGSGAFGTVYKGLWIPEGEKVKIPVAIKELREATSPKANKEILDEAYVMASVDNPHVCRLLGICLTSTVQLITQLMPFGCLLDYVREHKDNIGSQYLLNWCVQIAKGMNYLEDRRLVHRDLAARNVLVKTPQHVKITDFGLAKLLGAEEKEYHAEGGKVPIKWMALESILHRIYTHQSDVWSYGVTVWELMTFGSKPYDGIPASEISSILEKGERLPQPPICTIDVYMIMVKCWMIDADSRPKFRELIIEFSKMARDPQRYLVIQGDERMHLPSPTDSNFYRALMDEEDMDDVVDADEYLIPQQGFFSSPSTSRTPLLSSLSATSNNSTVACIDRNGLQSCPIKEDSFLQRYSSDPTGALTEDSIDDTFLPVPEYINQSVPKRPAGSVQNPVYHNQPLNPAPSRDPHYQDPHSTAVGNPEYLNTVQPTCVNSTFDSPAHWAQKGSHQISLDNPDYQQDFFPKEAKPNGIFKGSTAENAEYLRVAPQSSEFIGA
Recorded IC50 by entry
observedProperty: IC50

> print(dat)
                                querysmiles  recordedresult
1  CC(C)(C)C(=O)Nc1ccc2c(c1)/C(=C1/Nc3ccccc3/C1=N\O)C(=O)N2         > 10 µM
2  CCCCC(=O)Nc1ccc2c(c1)/C(=C1/Nc3ccccc3/C1=N\O)C(=O)N2         > 10 µM
3  CCCC(=O)Nc1ccc2c(c1)/C(=C1/Nc3ccccc3/C1=N\O)C(=O)N2            8 µM

----------
// IC50 collected for Death-associated protein kinase 2 (Homo sapiens)
observedProperty: IC50 (nM)

> print(dat)
                                querysmiles  resultqualifier  recordedresult
1  O=C1Nc2ccc(NC(=O)C3CC3)cc2/C1=C1/Nc2ccccc2/C1=N\O                =             170
2  CC(C)=CC(=O)Nc1ccc2c(c1)/C(=C1/Nc3ccccc3/C1=N\O)C(=O)N2                =             570
3  CCCC(=O)Nc1ccc2c(c1)/C(=C1/Nc3ccccc3/C1=N\O)C(=O)N2                =             590
4  CCCCC(=O)Nc1ccc2c(c1)/C(=C1/Nc3ccccc3/C1=N\O)C(=O)N2                =            2300
5  CC(C)(C)CC(=O)Nc1ccc2c(c1)/C(=C1/Nc3ccccc3/C1=N\O)C(=O)N2                >           10000
6  CC(C)(C)C(=O)Nc1ccc2c(c1)/C(=C1/Nc3ccccc3/C1=N\O)C(=O)N2                =             830

----------
pIC50: −log10 of the molar value.
// pIC50 collected for Serine/threonine-protein kinase 17B (Homo sapiens)
observedProperty: pIC50

> print(dat)
                                querysmiles                              testedtarget  resultqualifier  recordedresult
1  O=C1Nc2ccc(NC(=O)c3ccccc3)cc2/C1=C1/Nc2ccccc2/C1=N\O  Serine/threonine-protein kinase 17B (Homo sapiens)                =            6.70
2  Cc1ccc(C(=O)Nc2ccc3c(c2)/C(=C2/Nc4ccccc4/C2=N\O)C(=O)N3)cc1  Serine/threonine-protein kinase 17B (Homo sapiens)                =            5.89
3  COc1ccc(C(=O)Nc2ccc3c(c2)/C(=C2/Nc4ccccc4/C2=N\O)C(=O)N3)cc1  Serine/threonine-protein kinase 17B (Homo sapiens)                =            6.48
4      O=C1Nc2ccc(I)cc2/C1=C1/Nc2ccccc2C1=O  Serine/threonine-protein kinase 17B (Homo sapiens)                =            5.21
5  Cc1ccc2c(c1)/C(=C1/Nc3ccccc3C1=O)C(=O)N2  Serine/threonine-protein kinase 17B (Homo sapiens)                <            5.00

----------
Target: Serine/threonine-protein kinase 17B (Homo sapiens, UniProt O94768)
Sequence (O94768 whole entry): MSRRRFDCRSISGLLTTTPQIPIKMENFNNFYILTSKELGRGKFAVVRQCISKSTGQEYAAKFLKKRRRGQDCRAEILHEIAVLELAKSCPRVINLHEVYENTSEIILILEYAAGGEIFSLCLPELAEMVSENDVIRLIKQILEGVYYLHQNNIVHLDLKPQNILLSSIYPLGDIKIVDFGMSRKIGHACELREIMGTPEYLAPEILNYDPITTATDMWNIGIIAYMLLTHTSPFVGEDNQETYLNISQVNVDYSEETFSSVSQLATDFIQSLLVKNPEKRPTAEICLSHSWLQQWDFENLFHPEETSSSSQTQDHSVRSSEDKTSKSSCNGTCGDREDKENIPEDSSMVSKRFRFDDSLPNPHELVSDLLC
Recorded IC50 by entry
observedProperty: IC50 (µM)

> print(dat)
                                 querysmiles  observedproperty  valueunit  resultqualifier  recordedresult
 1  O=C1Nc2ccc(NC(=O)c3ccc([N+](=O)[O-])cc3)cc2/C1=C1/Nc2ccccc2/C1=N\O              IC50         µM                =             1.3
 2  O=C1Nc2ccc(NC(=O)C3CCCCC3)cc2/C1=C1/Nc2ccccc2/C1=N\O              IC50         µM                =            0.12
 3  Nc1ccc2c(c1)/C(=C1/Nc3ccccc3C1=O)C(=O)N2              IC50         µM                =             1.4
 4   O=C1Nc2ccc(F)cc2/C1=C1/Nc2ccccc2/C1=N\O              IC50         µM                =            0.62
 5  CCCCC(=O)Nc1ccc2c(c1)/C(=C1/Nc3ccccc3/C1=N\O)C(=O)N2              IC50         µM                =           0.003
 6  CCCC(=O)Nc1ccc2c(c1)/C(=C1/Nc3ccccc3/C1=N\O)C(=O)N2              IC50         µM                =            0.01
 7  O=C1Nc2ccc(NC(=O)c3ccc(F)cc3)cc2/C1=C1/Nc2ccccc2/C1=N\O              IC50         µM                =             1.2
 8  O=C(COc1cccc(Cl)c1)Nc1ccc2c(c1)/C(=C1/Nc3ccccc3/C1=N\O)C(=O)N2              IC50         µM                =            0.95
 9  O=C1Nc2ccc(NC(=O)c3ccc(Cl)cc3)cc2/C1=C1/Nc2ccccc2/C1=N\O              IC50         µM                =             3.2
10      O=C1Nc2ccc(F)cc2/C1=C1/Nc2ccccc2C1=O              IC50         µM                >              10

----------
Target: Epidermal growth factor receptor (Homo sapiens, UniProt P00533)
Assay: Inhibition of EGFR (unknown origin) using peptide substrate incubated for 30 mins by europium donor dye-based plate reader analysis
Sequence (P00533 whole entry): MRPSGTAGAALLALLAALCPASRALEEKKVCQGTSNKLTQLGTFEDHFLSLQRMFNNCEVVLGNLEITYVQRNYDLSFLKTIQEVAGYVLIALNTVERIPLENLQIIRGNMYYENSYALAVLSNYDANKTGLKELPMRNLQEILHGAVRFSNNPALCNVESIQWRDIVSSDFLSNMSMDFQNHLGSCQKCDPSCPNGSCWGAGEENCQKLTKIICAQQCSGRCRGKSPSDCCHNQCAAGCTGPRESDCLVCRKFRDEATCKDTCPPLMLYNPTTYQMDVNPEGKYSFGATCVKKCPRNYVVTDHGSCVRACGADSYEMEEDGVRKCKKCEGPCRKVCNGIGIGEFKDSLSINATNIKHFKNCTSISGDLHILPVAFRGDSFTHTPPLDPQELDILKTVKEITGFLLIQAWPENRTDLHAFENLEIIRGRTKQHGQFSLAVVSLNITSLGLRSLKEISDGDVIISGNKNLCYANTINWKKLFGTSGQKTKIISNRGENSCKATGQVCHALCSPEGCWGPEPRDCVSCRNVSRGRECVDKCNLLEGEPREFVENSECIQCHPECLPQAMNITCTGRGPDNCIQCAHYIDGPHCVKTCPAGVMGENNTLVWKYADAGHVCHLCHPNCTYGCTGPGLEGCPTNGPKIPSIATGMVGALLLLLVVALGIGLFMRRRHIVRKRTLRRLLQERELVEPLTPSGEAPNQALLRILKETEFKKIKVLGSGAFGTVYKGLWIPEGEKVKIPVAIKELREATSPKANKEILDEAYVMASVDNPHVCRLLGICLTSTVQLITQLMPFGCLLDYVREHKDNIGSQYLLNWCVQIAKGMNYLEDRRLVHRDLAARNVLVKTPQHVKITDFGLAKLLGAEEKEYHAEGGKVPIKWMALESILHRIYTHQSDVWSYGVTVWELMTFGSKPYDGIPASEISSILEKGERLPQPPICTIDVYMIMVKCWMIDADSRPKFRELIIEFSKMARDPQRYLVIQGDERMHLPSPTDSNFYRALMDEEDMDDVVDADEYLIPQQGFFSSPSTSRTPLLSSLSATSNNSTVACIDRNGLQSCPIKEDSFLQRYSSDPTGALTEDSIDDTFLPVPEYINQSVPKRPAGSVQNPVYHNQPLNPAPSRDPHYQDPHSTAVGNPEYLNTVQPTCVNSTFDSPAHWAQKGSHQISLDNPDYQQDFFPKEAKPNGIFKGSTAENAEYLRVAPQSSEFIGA
pIC50: −log10 of the molar value.
observedProperty: pIC50

> print(dat)
                                querysmiles  recordedresult
1  CC(C)(C)C(=O)Nc1ccc2c(c1)/C(=C1/Nc3ccccc3/C1=N\O)C(=O)N2          < 5.00
2  CCCCC(=O)Nc1ccc2c(c1)/C(=C1/Nc3ccccc3/C1=N\O)C(=O)N2          < 5.00
3  CCCC(=O)Nc1ccc2c(c1)/C(=C1/Nc3ccccc3/C1=N\O)C(=O)N2          < 5.00

----------
Recorded pIC50 by entry
Target: Activated CDC42 kinase 1 (Homo sapiens, UniProt Q07912)
Sequence (Q07912 whole entry): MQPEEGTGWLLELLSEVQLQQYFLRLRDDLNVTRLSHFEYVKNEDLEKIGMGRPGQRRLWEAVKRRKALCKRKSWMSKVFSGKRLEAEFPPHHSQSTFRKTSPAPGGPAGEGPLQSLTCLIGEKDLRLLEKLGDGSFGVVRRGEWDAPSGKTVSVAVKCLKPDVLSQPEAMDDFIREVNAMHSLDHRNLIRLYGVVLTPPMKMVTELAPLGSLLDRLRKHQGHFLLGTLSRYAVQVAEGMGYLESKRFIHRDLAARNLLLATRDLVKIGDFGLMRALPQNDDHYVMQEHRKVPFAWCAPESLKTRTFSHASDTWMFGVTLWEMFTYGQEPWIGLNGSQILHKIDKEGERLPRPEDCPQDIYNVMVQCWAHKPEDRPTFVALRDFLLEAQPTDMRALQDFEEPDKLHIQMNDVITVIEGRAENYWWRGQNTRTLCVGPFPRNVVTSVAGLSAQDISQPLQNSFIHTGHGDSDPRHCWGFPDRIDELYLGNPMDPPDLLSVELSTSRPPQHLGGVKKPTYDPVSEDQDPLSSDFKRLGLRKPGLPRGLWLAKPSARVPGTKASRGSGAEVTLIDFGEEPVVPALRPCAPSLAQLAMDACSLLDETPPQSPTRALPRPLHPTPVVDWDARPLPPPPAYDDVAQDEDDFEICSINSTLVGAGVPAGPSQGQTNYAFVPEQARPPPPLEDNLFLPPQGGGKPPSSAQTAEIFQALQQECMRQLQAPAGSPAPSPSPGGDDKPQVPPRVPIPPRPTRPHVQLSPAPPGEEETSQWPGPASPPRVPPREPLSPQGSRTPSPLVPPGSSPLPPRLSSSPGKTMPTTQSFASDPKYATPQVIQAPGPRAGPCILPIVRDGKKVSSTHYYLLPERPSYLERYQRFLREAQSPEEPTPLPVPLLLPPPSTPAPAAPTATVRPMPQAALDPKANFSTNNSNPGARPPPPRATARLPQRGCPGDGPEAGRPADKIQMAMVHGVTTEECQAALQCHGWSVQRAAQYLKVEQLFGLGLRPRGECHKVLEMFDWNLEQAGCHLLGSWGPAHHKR
Assay: Inhibition of AcK1 (unknown origin) using peptide substrate incubated for 30 mins by europium donor dye-based plate reader analysis
pIC50: −log10 of the molar value.
observedProperty: pIC50

> print(dat)
                                querysmiles                              testedtarget  observedproperty  recordedresult
1  CCCCC(=O)Nc1ccc2c(c1)/C(=C1/Nc3ccccc3/C1=N\O)C(=O)N2  Activated CDC42 kinase 1 (Homo sapiens, UniProt Q07912)             pIC50          < 5.00
2  CCCC(=O)Nc1ccc2c(c1)/C(=C1/Nc3ccccc3/C1=N\O)C(=O)N2  Activated CDC42 kinase 1 (Homo sapiens, UniProt Q07912)             pIC50          < 5.00
3  CC(C)(C)C(=O)Nc1ccc2c(c1)/C(=C1/Nc3ccccc3/C1=N\O)C(=O)N2  Activated CDC42 kinase 1 (Homo sapiens, UniProt Q07912)             pIC50          < 5.00
